The reported measurements were obtained from patent US6511978B1.

Molecular target: Ras farnesyl transferase (Homo sapiens, UniProt P49354+P49356)
Construct: made in house
Test: Ras farnesyl transferase enzyme inhibition, K-Ras substrate (H-Ras fused with polybasic lysine domain of K-Ras)
Assay type: biochemical
Conditions: K-Ras substrate (fused protein of H-Ras with polybasic lysine domain of K-Ras); recombinant farnesyl transferase
Each entry below carries its recorded IC50.

Some solved cases for reference:
| entry.smiles | result |
| --- | --- |
| COCCN(C)C(=O)c1cn(Cc2cncn2CCc2cccs2)cc1-c1cccc2ccccc12 | < 0.1 µM |
| COCCN(C)C(=O)c1cn(Cc2cncn2CCCOCc2ccccc2)cc1-c1cccc2ccccc12 | < 0.01 µM |

Q: Output IC50 of O=[N+]([O-])c1cn(Cc2cncn2CCc2cccc(Br)c2)cc1-c1cccc2ccccc12
Ans: < 0.013 µM

Q: Output IC50 of CN1CCN(C(=O)c2cn(Cc3cnc(N)n3Cc3ccc4c(c3)OCO4)cc2-c2cccc3ccccc23)CC1
Ans: < 0.0064 µM
